System: rodent lifetime carcinogenesis bioassay, tumor incidence TD50
Protocol Description: carcinogenic potency in animals, long-term in vivo studies, CPDB compilation (AID 1745844)
Cond: rat; strain Osborne-Mendel; females; by gavage; site: liver; lesion: hepatocellular adenoma + hepatocellular carcinoma + neoplastic nodule; dosed 78 weeks; study length 110 weeks
Property Name: TD50 (mg/kg/day)
Numbers only; they are read as mg/kg/day.

Input line: I have this compound here, ClC(Cl)Cl , and I need its recorded TD50.
Output line: 1130

###

Tested on: rodent lifetime carcinogenesis bioassay, tumor incidence TD50
Protocol Description: carcinogenic potency in animals, long-term in vivo studies, CPDB compilation (AID 1745844)
Cond: mouse; strain B6C3F1; females; in drinking water; site: liver; lesion: hepatocellular adenoma + hepatoblastoma + hepatocellular carcinoma; dosed 105 weeks; study length 105 weeks
Property Name: TD50 (mg/kg/day)
Numbers only; they are read as mg/kg/day.

Input line: I have this molecule here, CC(O)CCl (stereo unspecified) , and I need its recorded TD50.
Output line: 1040

###

Test system: rodent lifetime carcinogenesis bioassay, tumor incidence TD50
Protocol Description: carcinogenic potency in animals, long-term in vivo studies, CPDB compilation (AID 1745844)
Cond: rat; strain Fischer 344; males; by gavage; site: pancreatic islets; lesion: islet-cell carcinoma; dosed 30 weeks; study length 112 weeks
Property Name: TD50 (mg/kg/day)
Numbers only; they are read as mg/kg/day.

Input line: I have this compound here, CCCCCCCCCCCCN(C)N=O , and I need its recorded TD50.
Output line: 2.75

###

System: rodent lifetime carcinogenesis bioassay, tumor incidence TD50
Protocol Description: carcinogenic potency in animals, long-term in vivo studies, CPDB compilation (AID 1745844)
Cond: rat; strain Fischer 344; males; by gavage; site: lung; lesion: alveolar/bronchiolar carcinoma; dosed 130 weeks; study length 130 weeks
Property Name: TD50

Input line: I have this compound here, CN(CCCO)N=O , and I need its recorded TD50.
Output line: 2.46 mg/kg/day

###

Test system: rodent lifetime carcinogenesis bioassay, tumor incidence TD50
Protocol Description: carcinogenic potency in animals, long-term in vivo studies, CPDB compilation (AID 1745844)
Cond: rat; strain Fischer 344; females; by gavage; site: kidney; lesion: tubule carcinoma; dosed 103 weeks; study length 104 weeks
Property Name: TD50

Input line: Hi! What's the reported TD50 for C[C@@H]1Cc2c(Cl)cc(C(=O)N[C@@H](Cc3ccccc3)C(=O)O)c(O)c2C(=O)O1 on rodent lifetime carcinogenesis bioassay, tumor incidence TD50?
Output line: 1.31 mg/kg/day

###

Tested on: rodent lifetime carcinogenesis bioassay, tumor incidence TD50
Protocol Description: carcinogenic potency in animals, long-term in vivo studies, CPDB compilation (AID 1745844)
Cond: mouse; strain B6C3F1; females; by gavage; site: lung; lesion: alveolar/bronchiolar carcinoma; dosed 103 weeks; study length 105 weeks
The source made the active and inactive calls. The rule behind the calls is not given here.
Property Name: TD50

Input line: Hi! What's the reported TD50 for CCCCCl on rodent lifetime carcinogenesis bioassay, tumor incidence TD50?
Output line: 1710 mg/kg/day (inactive)

###

# TD50 per entry
Tested on: rodent lifetime carcinogenesis bioassay, tumor incidence TD50
Protocol Description: carcinogenic potency in animals, long-term in vivo studies, CPDB compilation (AID 1745844)
Cond: mouse; strain Swiss albino; females; in drinking water; site: lung; lesion: several types; types named in the paper; dosed 93 weeks; study length 93 weeks

> print(dat)
    structure                             target.entity  reported.measurement
1  CCCCNNCCCC  rodent lifetime carcinogenesis bioassay, tumor incidence TD50        69.8 mg/kg/day

Switching to the query record.
Input line: Hi! What's the reported TD50 for NNCCc1ccccc1 on rodent lifetime carcinogenesis bioassay, tumor incidence TD50?
Output line: 27.5 mg/kg/day
